conditions: in methanol, 278.15 K
measured property: solubility (mole fraction)
Just the number, please, no unit after it.

Field solubility (mole fraction) (entry `CCO.C[C@H]1c2cccc(O)c2C(O)=C2C(=O)[C@]3(O)C(O)=C(C(N)=O)C(=O)[C@@H](N(C)C)[C@@H]3[C@@H](O)[C@@H]21.C[C@H]1c2cccc(O)c2C(O)=C2C(=O)[C@]3(O)C(O)=C(C(N)=O)C(=O)[C@@H](N(C)C)[C@@H]3[C@@H](O)[C@@H]21.Cl.Cl.O` ) reads 0.0138

====

conditions: in water, 323.05 K
measured property: solubility (mole fraction)
Lab note: jot the number down without any unit.

Per the record, `CCO.C[C@H]1c2cccc(O)c2C(O)=C2C(=O)[C@]3(O)C(O)=C(C(N)=O)C(=O)[C@@H](N(C)C)[C@@H]3[C@@H](O)[C@@H]21.C[C@H]1c2cccc(O)c2C(O)=C2C(=O)[C@]3(O)C(O)=C(C(N)=O)C(=O)[C@@H](N(C)C)[C@@H]3[C@@H](O)[C@@H]21.Cl.Cl.O` has solubility (mole fraction) of 0.00647
